Values were extracted from patent US10945932B2.

system: Fusobacterium nucleatum; test: Metabolic activity, Biolog phenotype microarray; type: cell-based; settings: F nucleatum; 48 hrs
Assay Metric: metabolic activity, OD at 492 nm divided by OD of control (control = 1)
// return just the number, without any unit appended

Previously resolved entries follow.
- Input Smiles: "O=C(O)C[C@H](O)C(=O)O"
  Result: 0.8215
- Input Smiles: "C[C@H](O)C(=O)O"
  Result: 0.7884

Now let's try a different one.
Task: Hi! What's the reported metabolic activity, OD at 492 nm divided by OD of control (control = 1) for `O=C(O)CCC(=O)O` on Fusobacterium nucleatum?
Result: 0.8574
